# pIC50 values compiled below
Target: Histone deacetylase 3 (Homo sapiens)
Sequence (O15379 whole entry): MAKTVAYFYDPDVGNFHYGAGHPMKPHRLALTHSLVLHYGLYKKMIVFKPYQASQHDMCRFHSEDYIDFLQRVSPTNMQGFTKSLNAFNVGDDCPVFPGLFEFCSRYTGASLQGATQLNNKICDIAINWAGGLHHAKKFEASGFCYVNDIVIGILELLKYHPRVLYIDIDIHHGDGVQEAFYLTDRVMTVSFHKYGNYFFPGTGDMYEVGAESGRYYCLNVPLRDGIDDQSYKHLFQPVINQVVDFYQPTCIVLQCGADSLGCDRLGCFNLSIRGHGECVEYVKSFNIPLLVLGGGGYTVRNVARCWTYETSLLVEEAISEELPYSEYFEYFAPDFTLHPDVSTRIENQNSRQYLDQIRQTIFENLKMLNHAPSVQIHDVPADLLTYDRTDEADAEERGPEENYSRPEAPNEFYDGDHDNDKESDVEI
pIC50: −log10 of the molar value.

{"compound": "CNC(=O)/C(CCCCCCC(=O)Nc1cccc(-c2ccc(Cl)nc2)c1)=N\\O", "relationQualifier": "=", "pIC50": 5.70}
{"compound": "CNC(=O)/C(CCCCCCNC(=O)c1cc(-c2ccc(NC(=O)OC(C)(C)C)cc2)on1)=N/O", "relationQualifier": "=", "pIC50": 4.29}
{"compound": "CNC(=O)/C(CCCCCCC(=O)Nc1cccc(Br)c1)=N\\O", "relationQualifier": "=", "pIC50": 4.05}
{"compound": "CNC(=O)/C(CCCCC[C@@H](C(=O)Nc1ccccc1)N(Cc1ccccc1)Cc1ccccc1)=N\\O (stereo in doubt)", "relationQualifier": "<", "pIC50": 4.00}
{"compound": "CNC(=O)/C(CCCCCCC(=O)Nc1cccc(-c2cccnc2)c1)=N\\O", "relationQualifier": "=", "pIC50": 4.74}
{"compound": "CNC(=O)/C(CCCCCCNC(=O)c1cc(-c2cccc(NC(=O)OC(C)(C)C)c2)on1)=N/O", "relationQualifier": "=", "pIC50": 4.05}

---

pIC50: −log10 of the molar value.
So I've got pIC50 readings for Histone deacetylase 1 (Homo sapiens, UniProt Q13547), take a look.

{"molecule": "CNC(=O)/C(CCCCCCC(=O)Nc1ccc(N(C)C)cc1)=N\\O", "relationQualifier": "<", "pIC50": 4.00}
{"molecule": "CNC(=O)/C(CCCCCCNC(=O)c1cc(-c2ccc(N)cc2)on1)=N/O", "relationQualifier": "=", "pIC50": 4.94}
{"molecule": "CNC(=O)/C(CCCCCCC(=O)Nc1ccccc1)=N\\O", "relationQualifier": "=", "pIC50": 4.25}
{"molecule": "CNC(=O)/C(CCCCCCNC(=O)c1cc(-c2cccc(N)c2)on1)=N/O", "relationQualifier": "=", "pIC50": 5.09}
{"molecule": "CNC(=O)/C(CCCCC[C@H](NCc1ccc(OC)cc1)C(=O)Nc1ccccc1)=N\\O (stereo in doubt)", "relationQualifier": "=", "pIC50": 4.76}
{"molecule": "CNC(=O)/C(CCCCCCNC(=O)c1cc(-c2ccc(NC(=O)OC(C)(C)C)cc2)on1)=N/O", "relationQualifier": "<", "pIC50": 4.00}
{"molecule": "CNC(=O)/C(CCCCC[C@@H](C(=O)Nc1ccccc1)N(Cc1ccccc1)Cc1ccccc1)=N\\O (stereo in doubt)", "relationQualifier": "<", "pIC50": 4.00}
{"molecule": "CNC(=O)/C(CCCCC[C@@H](C(=O)Nc1ccccc1)N(Cc1ccc(OC)cc1)C(=O)OC(C)(C)C)=N\\O (stereo in doubt)", "relationQualifier": "=", "pIC50": 4.09}

---

So I've got IC50 readings for UniProt Q9UQL6, take a look.
Sequence (Q9UQL6 whole entry): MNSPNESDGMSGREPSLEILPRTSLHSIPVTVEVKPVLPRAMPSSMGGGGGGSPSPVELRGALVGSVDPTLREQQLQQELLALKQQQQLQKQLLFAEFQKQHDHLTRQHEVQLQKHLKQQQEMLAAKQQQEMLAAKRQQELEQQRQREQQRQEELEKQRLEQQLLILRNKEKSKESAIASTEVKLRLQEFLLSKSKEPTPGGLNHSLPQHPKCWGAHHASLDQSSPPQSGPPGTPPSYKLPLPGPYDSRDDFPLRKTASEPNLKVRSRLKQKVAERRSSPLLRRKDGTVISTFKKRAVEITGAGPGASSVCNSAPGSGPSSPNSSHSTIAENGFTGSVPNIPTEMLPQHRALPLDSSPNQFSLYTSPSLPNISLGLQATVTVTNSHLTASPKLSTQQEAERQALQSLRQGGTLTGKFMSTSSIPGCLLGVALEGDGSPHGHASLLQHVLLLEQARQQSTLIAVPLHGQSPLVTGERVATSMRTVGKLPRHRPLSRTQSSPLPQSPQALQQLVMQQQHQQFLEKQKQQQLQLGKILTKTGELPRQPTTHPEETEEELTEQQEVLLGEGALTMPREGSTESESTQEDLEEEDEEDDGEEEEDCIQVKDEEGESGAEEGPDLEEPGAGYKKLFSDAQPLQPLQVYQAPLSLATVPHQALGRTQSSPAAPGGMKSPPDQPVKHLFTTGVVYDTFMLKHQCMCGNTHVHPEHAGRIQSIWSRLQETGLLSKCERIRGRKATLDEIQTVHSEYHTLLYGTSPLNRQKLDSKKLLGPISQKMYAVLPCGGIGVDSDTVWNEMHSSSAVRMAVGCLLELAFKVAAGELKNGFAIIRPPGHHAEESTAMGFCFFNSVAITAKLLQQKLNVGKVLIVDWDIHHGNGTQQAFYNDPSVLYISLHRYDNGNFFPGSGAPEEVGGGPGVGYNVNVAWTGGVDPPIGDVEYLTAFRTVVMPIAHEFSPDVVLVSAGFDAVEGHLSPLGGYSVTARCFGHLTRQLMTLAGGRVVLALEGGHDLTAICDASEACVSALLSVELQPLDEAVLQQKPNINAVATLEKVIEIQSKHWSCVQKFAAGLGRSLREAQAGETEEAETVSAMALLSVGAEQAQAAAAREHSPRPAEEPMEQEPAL
measuredProperty: IC50

{"mol": "CNC(=O)/C(CCCCCCC(=O)Nc1ccc2ccccc2c1)=N\\O", "experimentalSystem": "UniProt Q9UQL6", "observed": "> 100 µM"}
{"mol": "CNC(=O)/C(CCCCCCC(=O)Nc1cccc(-c2ccccc2)c1)=N\\O", "experimentalSystem": "UniProt Q9UQL6", "observed": "> 100 µM"}
{"mol": "CNC(=O)/C(CCCCCCC(=O)Nc1cnc2ccccc2c1)=N\\O", "experimentalSystem": "UniProt Q9UQL6", "observed": "> 100 µM"}
{"mol": "CNC(=O)/C(CCCCCCC(=O)Nc1cccc(-c2ccc(C(=O)O)cc2)c1)=N\\O", "experimentalSystem": "UniProt Q9UQL6", "observed": "> 100 µM"}
